Tested on: human melanoma LOX IMVI
test_details: cells
Provide the reported viability at 25 µM of each item.
Answers are plain numbers, in %.

compound	viability at 25 µM / %
O=C(O)c1cn(C2CC2)c2cc(N3CCN(C(=O)CCCN4C(=O)SC(=Cc5ccccc5)C4=O)CC3)c(F)cc2c1=O	48.8
O=C(O)c1cn(C2CC2)c2cc(N3CCN(C(=O)CCCN4C(=O)S/C(=C\c5ccc(F)cc5)C4=O)CC3)c(F)cc2c1=O	51.5
O=C(O)c1cn(C2CC2)c2cc(N3CCN(C(=O)CCCN4C(=O)SC(=Cc5cccc6ccccc56)C4=O)CC3)c(F)cc2c1=O	61.5
COc1cccc2c1C(=O)c1c(O)c3c(c(O)c1C2=O)C[C@@](O)(C(=O)CO)C[C@@H]3O[C@H]1C[C@H](N)[C@H](O)[C@H](C)O1 [Doxorubicin, reference compound]	42.6
COc1ccc(C=C2SC(=O)N(CCCC(=O)N3CCN(c4cc5c(cc4F)c(=O)c(C(=O)O)cn5C4CC4)CC3)C2=O)cc1	52

# batch: return viability at 25 µM for each of the 2 compounds below
1. O=C(O)c1cn(C2CC2)c2cc(N3CCN(C(=O)CCCN4C(=O)S/C(=C\c5ccc([N+](=O)[O-])cc5)C4=O)CC3)c(F)cc2c1=O
2. O=C(O)c1cn(C2CC2)c2cc(N3CCN(C(=O)CCCN4C(=O)CSC4=O)CC3)c(F)cc2c1=O

Data returned:
[80.2, 59.8]

----------
Test system: NCI-H322M
test_details: NCI single-dose growth inhibition screen
Format: cell-based
details: Homo sapiens; Non-Small Cell Lung Cancer NCI-H322M; single dose 10^−5 M
The label depends only on inhibition at 10 µM: yes if it is at least 6%, no if it is smaller.

In [3]: df
Out[3]:
                              record_smiles  group
0  Cc1ccc(/C=C2\SC(=O)N(CCCC(=O)N3CCN(c4cc5c(cc4F)c(=O)c(C(=O)O)cn5C4CC4)CC3)C2=O)cc1     no

Data request: Reported inhibition at 10 µM reaches at least 6% for O=C(O)c1cn(C2CC2)c2cc(N3CCN(C(=O)CCCN4C(=O)SC(=Cc5cccc6ccccc56)C4=O)CC3)c(F)cc2c1=O ?
Data returned: yes

Data request: Reported inhibition at 10 µM reaches at least 6% for O=C(O)c1cn(C2CC2)c2cc(N3CCN(C(=O)CCCN4C(=O)S/C(=C\c5ccc([N+](=O)[O-])cc5)C4=O)CC3)c(F)cc2c1=O ?
Data returned: no

Data request: Reported inhibition at 10 µM reaches at least 6% for O=C(O)c1cn(C2CC2)c2cc(N3CCN(C(=O)CCCN4C(=O)CSC4=O)CC3)c(F)cc2c1=O ?
Data returned: no

Data request: Reported inhibition at 10 µM reaches at least 6% for O=C(O)c1cn(C2CC2)c2cc(N3CCN(C(=O)CCCN4C(=O)SC(=Cc5ccccc5)C4=O)CC3)c(F)cc2c1=O ?
Data returned: yes

Data request: Reported inhibition at 10 µM reaches at least 6% for O=C(O)c1cn(C2CC2)c2cc(N3CCN(C(=O)CCCN4C(=O)SC(=Cc5cccc([N+](=O)[O-])c5)C4=O)CC3)c(F)cc2c1=O ?
Data returned: yes

Data request: Reported inhibition at 10 µM reaches at least 6% for COc1cc(/C=C2\SC(=O)N(CCCC(=O)N3CCN(c4cc5c(cc4F)c(=O)c(C(=O)O)cn5C4CC4)CC3)C2=O)cc(OC)c1OC ?
Data returned: no

Data request: Reported inhibition at 10 µM reaches at least 6% for O=C(O)c1cn(C2CC2)c2cc(N3CCN(C(=O)CCCN4C(=O)S/C(=C\c5ccc(F)cc5)C4=O)CC3)c(F)cc2c1=O ?
Data returned: yes

Data request: Reported inhibition at 10 µM reaches at least 6% for O=C(O)c1cn(C2CC2)c2cc(N3CCN(C(=O)CCCN4C(=O)S/C(=C\c5ccc(Cl)cc5)C4=O)CC3)c(F)cc2c1=O ?
Data returned: yes

Data request: Reported inhibition at 10 µM reaches at least 6% for COc1ccc(/C=C2\SC(=O)N(CCCC(=O)N3CCN(c4cc5c(cc4F)c(=O)c(C(=O)O)cn5C4CC4)CC3)C2=O)cc1OC ?
Data returned: no

----------
Test system: NCI-H522
test_details: NCI single-dose growth inhibition screen
Format: cell-based
details: Homo sapiens; Non-Small Cell Lung Cancer NCI-H522; single dose 10^−5 M
Each entry falls in a class defined on inhibition at 10 µM; the bands are low group (below 8%), middle group (8% to below 20%), high group (20% or more)

                              record_smiles         group
0  O=C(O)c1cn(C2CC2)c2cc(N3CCN(C(=O)CCCN4C(=O)SC(=Cc5cccc6ccccc56)C4=O)CC3)c(F)cc2c1=O  middle group
1  Cc1ccc(/C=C2\SC(=O)N(CCCC(=O)N3CCN(c4cc5c(cc4F)c(=O)c(C(=O)O)cn5C4CC4)CC3)C2=O)cc1     low group
2  COc1cc(/C=C2\SC(=O)N(CCCC(=O)N3CCN(c4cc5c(cc4F)c(=O)c(C(=O)O)cn5C4CC4)CC3)C2=O)cc(OC)c1OC     low group
3  O=C(O)c1cn(C2CC2)c2cc(N3CCN(C(=O)CCCN4C(=O)S/C(=C\c5ccc(Cl)cc5)C4=O)CC3)c(F)cc2c1=O  middle group
4  COc1ccc(C=C2SC(=O)N(CCCC(=O)N3CCN(c4cc5c(cc4F)c(=O)c(C(=O)O)cn5C4CC4)CC3)C2=O)cc1    high group
5  O=C(O)c1cn(C2CC2)c2cc(N3CCN(C(=O)CCCN4C(=O)S/C(=C\c5ccc(F)cc5)C4=O)CC3)c(F)cc2c1=O    high group
6  O=C(O)c1cn(C2CC2)c2cc(N3CCN(C(=O)CCCN4C(=O)SC(=Cc5cccc([N+](=O)[O-])c5)C4=O)CC3)c(F)cc2c1=O    high group

# ---- query compound ----
Data request: Form: Item = O=C(O)c1cn(C2CC2)c2cc(N3CCN(C(=O)CCCN4C(=O)SC(=Cc5ccccc5)C4=O)CC3)c(F)cc2c1=O ; Class = ?
Data returned: high group

----------
Provide the reported inhibition at 10 µM of each item.
Tested on: T-47D
test_details: NCI single-dose growth inhibition screen
Assay type: cell-based
details: Homo sapiens, T47D; Breast Cancer T-47D; single dose 10^−5 M
Numbers only, in %.

                                   compound  measured_target  reported_measurement
0  O=C(O)c1cn(C2CC2)c2cc(N3CCN(C(=O)CCCN4C(=O)S/C(=C\c5ccc(F)cc5)C4=O)CC3)c(F)cc2c1=O [3i]            T-47D                     5

Lab note: next compound to report on.
Data request: Fill in reported inhibition at 10 µM for this entry: O=C(O)c1cn(C2CC2)c2cc(N3CCN(C(=O)CCCN4C(=O)S/C(=C\c5ccc(Cl)cc5)C4=O)CC3)c(F)cc2c1=O [3 h]
Data returned: 2

----------
measured_quantity: melting point

>>> df
                              record_smiles  measured_quantity  reported_measurement
0  COc1ccc(/C=C2\SC(=O)N(CCCC(=O)N3CCN(c4cc5c(cc4F)c(=O)c(C(=O)O)cn5C4CC4)CC3)C2=O)cc1OC      melting point                241 °C

# batch: return melting point for each of the 8 compounds below
1. Cc1ccc(/C=C2\SC(=O)N(CCCC(=O)N3CCN(c4cc5c(cc4F)c(=O)c(C(=O)O)cn5C4CC4)CC3)C2=O)cc1
2. O=C(O)c1cn(C2CC2)c2cc(N3CCN(C(=O)CCCN4C(=O)SC(=Cc5cccc6ccccc56)C4=O)CC3)c(F)cc2c1=O
3. O=C(O)c1cn(C2CC2)c2cc(N3CCN(C(=O)CCCN4C(=O)S/C(=C\c5ccc(Cl)cc5)C4=O)CC3)c(F)cc2c1=O
4. O=C(O)c1cn(C2CC2)c2cc(N3CCN(C(=O)CCCN4C(=O)CSC4=O)CC3)c(F)cc2c1=O
5. COc1cc(/C=C2\SC(=O)N(CCCC(=O)N3CCN(c4cc5c(cc4F)c(=O)c(C(=O)O)cn5C4CC4)CC3)C2=O)cc(OC)c1OC
6. O=C(O)c1cn(C2CC2)c2cc(N3CCN(C(=O)CCCN4C(=O)S/C(=C\c5ccc([N+](=O)[O-])cc5)C4=O)CC3)c(F)cc2c1=O
7. O=C(O)c1cn(C2CC2)c2cc(N3CCN(C(=O)CCCN4C(=O)SC(=Cc5cccc([N+](=O)[O-])c5)C4=O)CC3)c(F)cc2c1=O
8. O=C(O)c1cn(C2CC2)c2cc(N3CCN(C(=O)CCCN4C(=O)SC(=Cc5ccccc5)C4=O)CC3)c(F)cc2c1=O

Data returned:
233 to 234 °C
219 °C
273 °C
230 °C
252 °C
299 to 300 °C
263 °C
238 °C
